Origin of values: ChEMBL document CHEMBL3885881

species on record: Rattus norvegicus; test: DrugMatrix - Regimen: Daily Repeat; type: toxicity, organism-based, Sprague-Dawley; parameters: regimen Daily Repeat, gender Male, age 6-8 weeks; settings: in vivo, po, 0 mg/kg, 120 h, tissue Plasma, route oral GAVAGE, dose level Control, time 5 day, vehicle 100 % WATER
Field: BLOOD UREA NITROGEN. Provide a value for each of the compounds that follow.
Entry rule: numbers only, all in mg/dL.

Which value of BLOOD UREA NITROGEN has been reported for NCCCCCC(=O)O in the records?
15.33

Which value of BLOOD UREA NITROGEN has been reported for C=CCC1(C(C)CCC)C(=O)NC(=O)NC1=O (centres undefined) in the records?
15

Which value of BLOOD UREA NITROGEN has been reported for C[C@H](CS)C(=O)N1CCC[C@H]1C(=O)O in the records?
15.5

Which value of BLOOD UREA NITROGEN has been reported for CNNCc1ccc(C(=O)NC(C)C)cc1 in the records?
14.17

---

species: Rattus norvegicus; assay: DrugMatrix - Regimen: Daily Repeat; type: toxicity, organism-based, Sprague-Dawley; design: regimen Daily Repeat, gender Male, age 6-8 weeks; details: in vivo, po, 0 mg/kg, 72 h, tissue Blood, route oral GAVAGE, dose level Control, time 3 day, vehicle .5 % CMC
Value type: BASOPHIL (%)
Entry rule: numbers only, all in %.

Which value of BASOPHIL has been reported for NC1=NC(=O)C(c2ccccc2)O1 (stereo not drawn) [PEMOLINE] in the records?
0

Which value of BASOPHIL has been reported for N=C(N)NCCN1CCCCCCC1 [GUANETHIDINE] in the records?
0

Which value of BASOPHIL has been reported for CCOP(=S)(OCC)Oc1nc(Cl)c(Cl)cc1Cl [CHLORPYRIFOS] in the records?
0.62

---

species: Rattus norvegicus; test: DrugMatrix - Regimen: Daily Repeat; format: toxicity, organism-based, Sprague-Dawley; set-up: regimen Daily Repeat, gender Male, age 6-8 weeks; details: in vivo, po, 0 mg/kg, 72 h, tissue Plasma, route oral GAVAGE, dose level Control, time 3 day, vehicle .5 % CMC
Value type: POTASSIUM (MEQ/L)
Entry rule: numbers only, all in MEQ/L.

Which value of POTASSIUM has been reported for O=C(CCCN1CC=C(n2c(=O)[nH]c3ccccc32)CC1)c1ccc(F)cc1 in the records?
7.03

Which value of POTASSIUM has been reported for CCOP(=S)(OCC)Oc1nc(Cl)c(Cl)cc1Cl in the records?
6.57

Which value of POTASSIUM has been reported for CC1CC(OC(=O)C(O)c2ccccc2)CC(C)(C)C1 (configuration not stated) [CYCLANDELATE] in the records?
6.23

Which value of POTASSIUM has been reported for Cc1ccc2cc3c(ccc4ccccc43)c3c2c1CC3 in the records?
7.1

Which value of POTASSIUM has been reported for CC(C)(C)NC(=O)[C@@H]1C[C@@H]2CCCC[C@@H]2CN1C[C@@H](O)[C@H](Cc1ccccc1)NC(=O)[C@H](CC(N)=O)NC(=O)c1ccc2ccccc2n1 in the records?
6.33

Which value of POTASSIUM has been reported for Nc1ccn([C@H]2CC[C@@H](CO)O2)c(=O)n1 in the records?
5.65

Which value of POTASSIUM has been reported for ClC(Br)Br in the records?
6.41
